# system: Tyrosine-protein kinase SYK (Homo sapiens, UniProt P43405)
outcomeMeasure: pIC50
One number for each entry, as −log10 of the molar value.

Query: Would you mind telling me what pIC50 value was observed for CCc1cc(Nc2nccc(-c3c(-c4ccc(OC)c(C(=O)Nc5c(F)cccc5F)c4)nc4ccccn34)n2)c(OC)cc1N1CCC(N2CCN(S(C)(=O)=O)CC2)CC1 ?
Result: 5.49

====

# system: 3-phosphoinositide-dependent protein kinase 1 (Homo sapiens, UniProt O15530)
# Sequence (O15530 whole entry): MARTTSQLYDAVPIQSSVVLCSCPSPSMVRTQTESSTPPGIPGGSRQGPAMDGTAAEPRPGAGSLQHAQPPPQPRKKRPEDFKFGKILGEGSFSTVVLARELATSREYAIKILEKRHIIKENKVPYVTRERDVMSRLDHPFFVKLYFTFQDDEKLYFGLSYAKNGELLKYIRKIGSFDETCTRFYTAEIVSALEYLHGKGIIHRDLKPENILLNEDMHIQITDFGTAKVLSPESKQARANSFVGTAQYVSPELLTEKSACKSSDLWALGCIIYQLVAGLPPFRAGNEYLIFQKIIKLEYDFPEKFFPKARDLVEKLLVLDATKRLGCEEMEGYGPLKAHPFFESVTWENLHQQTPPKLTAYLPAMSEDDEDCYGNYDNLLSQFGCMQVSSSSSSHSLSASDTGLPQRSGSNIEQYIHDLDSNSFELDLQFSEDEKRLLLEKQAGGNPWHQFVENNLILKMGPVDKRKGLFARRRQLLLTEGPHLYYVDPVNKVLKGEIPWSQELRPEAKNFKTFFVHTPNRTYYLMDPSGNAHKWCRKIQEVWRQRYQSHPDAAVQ
outcomeMeasure: IC50

Query: Would you mind telling me what IC50 value was observed for CCc1cc(Nc2nccc(-c3c(-c4ccc(OC)c(C(=O)Nc5c(F)cccc5F)c4)nc4ccccn34)n2)c(OC)cc1N1CCC(N2CCN(S(C)(=O)=O)CC2)CC1 ?
Result: > 10 µM
